Target: T1, human GREM1 (hGREM1-His; SEQ ID NO: 595) (human, UniProt O60565 25-184)
T1 construct: also called biotin-hGREM1-His; recombinant human GREM1 protein
T1 sequence: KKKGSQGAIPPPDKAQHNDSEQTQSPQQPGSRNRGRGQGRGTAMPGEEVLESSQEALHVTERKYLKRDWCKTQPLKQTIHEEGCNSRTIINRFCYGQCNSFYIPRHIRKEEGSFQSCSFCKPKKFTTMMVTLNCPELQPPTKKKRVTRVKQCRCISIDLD
Experiment: SPR, Biacore T200, 25 C, mAb captured, hGREM1-His injected;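 note: Heparin-supplemented HBS-EP+ used as running buffer, association and dissociation phases followed, Kd computed as koff divided by kon and half-life derived from koff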
Assay Readout: koff (s⁻¹)

1. H4H2780N (antibody, human IgG4, V domains shown, H4H prefix = human IgG4 Fc) VH: EVQLVESGGGLVKPGGSLRLSCAASGFTFSTYSMNWVRQAPGKGLEWVSSISSGSSYIYYTDSVKGRFTISRDNAKNSLYLQMNSLRAEDTAVYYCARFGSYYYFGFDVWGQGTTVTVSS VL: DIQMTQSPSSLSASVGDRVTITCRASQGISNYLAWYQQKPGKVPKLLIFSASTLQSGVPSRFSGSGSGPDFTLTVSSLQPEDVATYYCQKYNSAPFAFGPGTKVDIK : 0.00088
2. H4H6246P (antibody, human IgG4, V domains shown, H4H prefix = human IgG4 Fc) VH: QVQLVESGGGVVQPGRSLRLSCAASGFTFSSYGMHWVRQAPGKGLEWVAIIWYDGSNRYYADSVKGRFTISRDNSRNTLYLQMNSLRAEDTAVYYCARDEYGDYDYPFDYWGQGTLVTVSS VL: DIQMTQSPSSLSASVGDRVTITCRASQGIRNDLGWFQQKPGKAPKRLIYAASSLQSGVPSRFSGSGSGTEFTLTISSLQPEDFATYYCLQHNTYPPFTFGPGTKVDIK : 0.000192
3. H4H6248P (antibody, human IgG4, V domains shown, H4H prefix = human IgG4 Fc) VH: QVQLVESGGGVVQPGRSLRLSCAASGFTFSNYGMHWVRQVPGKGLEWVAVIWYDGSNKYYADSVKGRFTISRDNSKNTLYLQMNSVRAEDTAVYYCARDDYGDSPGFDYWGQGTLVTVSS VL: EIVMTQSPATLSVSPGERATLSCRASQSVSSSLAWYQQKPGQAPRLLIYDASTRATGIPARFSGSGSGTEFTLTISGLQSEDFAVYYCQQYNNWPPWTFGQGTKVEIK : 7.73e-05
4. H4H2783N2 (antibody, human IgG4, V domains shown, H4H prefix = human IgG4 Fc) VH: EVQLLESGGGLVQPGGSLRLSCAASGFTFSSYVMNWVRQAPGKGLEWVSAISGSGGSTYYADSVKGRSTISRDNSKNTLYLQMNSLRAEDTAIYYCAKGDIAAIVFDAFDIWGQGTVVTVSS VL: DIQMTQSPSSLSASVGDRVTITCQASQDISSALNWYQHKPGKAPKLLIYDASYLETGVPSRFSGSGSGTDFTFTISSLQPEDIATYYCQQYDNLPYTFGQGTKLEIK : 0.000476
5. H4H2926N (antibody, human IgG4, V domains shown, H4H prefix = human IgG4 Fc) VH: EVQLVESGGGLVQTGRSLRLSCAASGFTFDDYAMNWVRQAPGKGLEWVSGISWNSGNIGYADSVKGRFTISRDNAKNSLYLQMNSLRAEDTALYYCVKYIGQQLVQDYFDYWGQGTLVTVSS VL: DIQMTQSPSSLSASVGDRVTITCQASQDITNYLNWYQQRPGKAPKLLIYDAFNLERGVPSRFSGSGYGTYFTFTISSLQPEDIAIYYCQQYDNLPLTFGGGTKVEIE : 0.000502
